All values here come from ChEMBL document CHEMBL4811320.

Biological target: Amyloid-beta precursor protein (Homo sapiens)
Sequence (P05067 whole entry): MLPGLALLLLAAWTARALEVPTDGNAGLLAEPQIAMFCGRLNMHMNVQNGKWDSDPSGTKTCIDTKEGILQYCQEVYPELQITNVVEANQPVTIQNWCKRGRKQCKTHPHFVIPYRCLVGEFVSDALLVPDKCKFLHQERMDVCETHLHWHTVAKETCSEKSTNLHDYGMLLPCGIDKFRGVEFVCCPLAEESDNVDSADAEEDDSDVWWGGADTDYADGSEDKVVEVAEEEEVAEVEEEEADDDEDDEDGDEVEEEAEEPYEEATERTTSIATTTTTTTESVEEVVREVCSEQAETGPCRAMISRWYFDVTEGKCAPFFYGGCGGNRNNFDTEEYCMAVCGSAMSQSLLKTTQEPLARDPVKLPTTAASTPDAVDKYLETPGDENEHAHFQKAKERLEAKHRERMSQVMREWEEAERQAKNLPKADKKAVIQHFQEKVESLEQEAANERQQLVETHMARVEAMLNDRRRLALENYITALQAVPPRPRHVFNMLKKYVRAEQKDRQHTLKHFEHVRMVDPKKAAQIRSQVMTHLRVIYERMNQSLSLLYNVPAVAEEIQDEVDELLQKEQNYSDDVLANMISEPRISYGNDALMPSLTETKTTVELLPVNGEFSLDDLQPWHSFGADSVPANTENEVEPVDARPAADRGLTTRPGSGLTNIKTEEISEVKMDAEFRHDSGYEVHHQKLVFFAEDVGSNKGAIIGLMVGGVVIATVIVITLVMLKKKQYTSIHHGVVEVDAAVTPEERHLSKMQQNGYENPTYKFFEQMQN
Assay: Inhibition of amyloid beta (1 to 42) (unknown origin) self-induced aggregation incubated for 24 hrs by Thioflavin T based fluorometric assay
Can you tell me pIC50 for the items I'm about to list?
The scale used: pIC50 is minus the common logarithm of the concentration in molar units.

Prompt line: Please report the measured pIC50 for `O=c1cc(/C=C/c2ccc(OCCCN3CCCC3)cc2)occ1O`
Response line: 5.65

Prompt line: Please report the measured pIC50 for `CN1CCN(CCCOc2ccc(/C=C/c3cc(=O)c(O)co3)cc2)CC1`
Response line: 5.26

Prompt line: Please report the measured pIC50 for `CN1CCN(CCCOc2ccc(/C=C/c3cc(=O)c(O)cn3C)cc2)CC1`
Response line: 5.22

Prompt line: Please report the measured pIC50 for `CN(C)CCCOc1ccc(/C=C/c2cc(=O)c(O)co2)cc1`
Response line: 5.35

Prompt line: Please report the measured pIC50 for `Cn1cc(O)c(=O)cc1/C=C/c1ccc(OCCCN2CCCC2)cc1`
Response line: 5.48

Prompt line: Please report the measured pIC50 for `CCN(CC)CCCOc1ccc(/C=C/c2cc(=O)c(O)co2)cc1`
Response line: 5.40

Prompt line: Please report the measured pIC50 for `O=c1cc(/C=C/c2ccc(OCCCN3CCOCC3)cc2)occ1O`
Response line: 5.39

Prompt line: Please report the measured pIC50 for `Cn1cc(O)c(=O)cc1/C=C/c1ccc(OCCCN2CCCCC2)cc1`
Response line: 5.59

Prompt line: Please report the measured pIC50 for `O=c1cc(/C=C/c2ccc(OCCCN3CCCCC3)cc2)occ1O`
Response line: 5.49

Prompt line: Please report the measured pIC50 for `Cc1oc(/C=C/c2ccc(OCCCN3CCCC3)cc2)cc(=O)c1O`
Response line: 5.15

Prompt line: Please report the measured pIC50 for `CCN(CC)CCCOc1ccc(/C=C/c2cc(=O)c(O)cn2C)cc1`
Response line: 5.27

Prompt line: Please report the measured pIC50 for `CCn1cc(O)c(=O)cc1/C=C/c1ccc(OCCCN2CCCC2)cc1`
Response line: 5.68

Prompt line: Please report the measured pIC50 for `Cn1cc(O)c(=O)cc1/C=C/c1ccc(OCCCN2CCOCC2)cc1`
Response line: 5.27

Prompt line: Please report the measured pIC50 for `CN(C)CCCOc1ccc(/C=C/c2cc(=O)c(O)cn2C)cc1`
Response line: 5.21

Prompt line: Please report the measured pIC50 for `CCn1cc(O)c(=O)cc1/C=C/c1ccc(OCCCN2CCCCC2)cc1`
Response line: 5.52

Prompt line: Please report the measured pIC50 for `Cc1oc(/C=C/c2ccc(OCCCN3CCCCC3)cc2)cc(=O)c1O`
Response line: 5.20
